- TESTED_ON: HLA-A*11:01
- TEST_NAME: IEDB peptide-MHC binding, purified MHC/competitive/radioactivity; filed as Kd, often an IC50 or EC50 that approximates it; bounds were set here for any values at or beyond the usual limits of such assays
- CONDITION_CONTEXT: source organism: Dengue virus 1 Brazil/97-11/1997
pKd reference
Lab note — pKd values are minus log10 of concentrations in M.

Below are worked cases with known answers.
MTSRMLLNR
7.39
LVTFKTAHAK
6.32
TTLWEGSPGK
7.07
VSILLSSLLK
7.31
GILARWSSFK
7.53

We next turn to a different sequence, shown below.
Problem: Reported pKd for `LSKSEFNTYK` : what is it?
Result: 6.25

====

pKd reference
- TESTED_ON: HLA-B*27:03
- TEST_NAME: IEDB peptide-MHC binding, purified MHC/competitive/fluorescence; filed as Kd, often an IC50 or EC50 that approximates it; bounds were set here for any values at or beyond the usual limits of such assays
- CONDITION_CONTEXT: source organism: Homo sapiens
pKd: −log10 of the molar value.

HLLCQAFSV
≤ 4.70

We next turn to a different sequence, shown below.
Problem: Reported pKd for `VVPSYIPLV` : what is it?
Result: ≤ 4.70

====

- TESTED_ON: HLA-A*69:01
- TEST_NAME: IEDB peptide-MHC binding, purified MHC/competitive/fluorescence; filed as Kd, often an IC50 or EC50 that approximates it; bounds were set here for any values at or beyond the usual limits of such assays
- CONDITION_CONTEXT: source organism: Human immunodeficiency virus type 1 (ELI ISOLATE)
REPORTED_ENDPOINT: Kd

Problem: Reported Kd for `SLGQHIYET` : what is it?
Result: ≥ 20 µM

====

- TESTED_ON: HLA-B*15:01
- TEST_NAME: IEDB peptide-MHC binding, purified MHC/competitive/fluorescence; filed as Kd, often an IC50 or EC50 that approximates it; bounds were set here for any values at or beyond the usual limits of such assays
- CONDITION_CONTEXT: source organism: Yersinia pestis Nepal516
REPORTED_ENDPOINT: Kd (nM)
Response body: numeric value in nM, unit text excluded.

Problem: Reported Kd for `TEYKRVMTF` : what is it?
Result: 767

====

- TESTED_ON: HLA-B*18:01
- TEST_NAME: IEDB peptide-MHC binding, purified MHC/competitive/fluorescence; filed as Kd, often an IC50 or EC50 that approximates it; bounds were set here for any values at or beyond the usual limits of such assays
- CONDITION_CONTEXT: source organism: Homo sapiens
pKd: −log10 of the molar value.
REPORTED_ENDPOINT: pKd

VVPSYIPLV
≤ 4.70

We next turn to a different sequence, shown below.
Problem: Give pKd (HLA-B*18:01) of the following sequence: `HLLCQAFSV`
Result: ≤ 4.70

====

- TESTED_ON: HLA-B*15:02
- TEST_NAME: IEDB peptide-MHC binding, purified MHC/competitive/fluorescence; filed as Kd, often an IC50 or EC50 that approximates it; bounds were set here for any values at or beyond the usual limits of such assays
- CONDITION_CONTEXT: source organism: Shigella dysenteriae Sd197
REPORTED_ENDPOINT: Kd (nM)
Response body: numeric value in nM, unit text excluded.

Problem: Give Kd (HLA-B*15:02) of the following sequence: `QLLDFLLAY`
Result: 55.8
